experiment: reversal of MRP1-mediated doxorubicin resistance, pilot screen, H69AR cells, doxorubicin co-treatment (AID 601); conditions: H69AR cells + 2 uM doxorubicin, CellTiter-Glo, 72 h; measured here: viability with 2 uM doxorubicin; at 10 µM; stronger effect = lower value
Values of viability strictly less than 90% map to satisfied, and values of at least 90% map to not satisfied.

Decide: viability of `CCN1C(=O)c2cccc3c(NC(=O)c4ccc5c(c4)OCCO5)ccc1c23` strictly below 90%?
satisfied

Now consider COCCNC(=O)C(C)OC(=O)c1nsc(Cl)c1Cl (stereo not given) .
not satisfied

Repeat for the following molecule: `Cn1c(=O)c2c(nc(NCc3ccccc3)n2CCCc2ccccc2)n(C)c1=O`
not satisfied

Further, for `CCn1c(=O)n(CC(=O)NCc2ccccc2OC)c(=O)c2ccccc21` ?
not satisfied

Also check `CCCCn1c(NCCC)nc2c1c(=O)[nH]c(=O)n2C`
satisfied

What do you have for CC1=CCC2C(=O)N(c3nc(C)cc(C)n3)C(=O)C2C1 (stereo not given) ?
not satisfied

Also check Cc1ccc2cc(CN(CC3CCCO3)S(=O)(=O)c3ccc4c(c3)OCCO4)c(=O)[nH]c2c1C (stereo not given)
satisfied

`CN(c1ccccc1)S(=O)(=O)c1ccc(C(=O)OCC(=O)NCc2ccco2)cc1` ?
satisfied

Try this molecule next: `COc1ccc(Nc2nc(OC)nc(N3CCN(c4ccc(OC)cc4)CC3)n2)cc1`
satisfied
